SYSTEM NAME: T1, rat CRF binding protein C-terminally fused with a His6 sequence (rat) (UniProt P24388)
T1 sequence: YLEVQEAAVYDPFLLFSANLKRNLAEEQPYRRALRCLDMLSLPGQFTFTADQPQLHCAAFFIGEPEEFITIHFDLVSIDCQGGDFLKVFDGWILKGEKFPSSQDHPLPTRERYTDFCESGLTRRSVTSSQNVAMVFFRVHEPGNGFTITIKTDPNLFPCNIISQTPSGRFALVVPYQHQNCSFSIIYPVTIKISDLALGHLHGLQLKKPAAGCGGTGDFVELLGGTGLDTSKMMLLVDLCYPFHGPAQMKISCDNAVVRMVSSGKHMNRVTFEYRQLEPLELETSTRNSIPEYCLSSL
TEST SUMMARY: SPA competition with 0.1 nM [125I-Tyr0]h/rCRF, His-tagged rCRFBP; 95% CI (0.66-1.0)
Ends that are not written are not given here.

[
  {
    "BINDER": "QGPPISIDLSLELLRKMIEIARAEKEKQQAANNRLLLDTI (ends and bridges not checked) [[Ala^21,23Arg^22]Svg]",
    "IC50 [pM]": 840
  }
]
